FYI, the data here is from paper PMC10786891.

- testSystem: T1, EsCas13d, nuclease-dead (Eubacterium siraeum, UniProt B0MS50, R295A;H300A;R849A;H854A)
- T1 sequence: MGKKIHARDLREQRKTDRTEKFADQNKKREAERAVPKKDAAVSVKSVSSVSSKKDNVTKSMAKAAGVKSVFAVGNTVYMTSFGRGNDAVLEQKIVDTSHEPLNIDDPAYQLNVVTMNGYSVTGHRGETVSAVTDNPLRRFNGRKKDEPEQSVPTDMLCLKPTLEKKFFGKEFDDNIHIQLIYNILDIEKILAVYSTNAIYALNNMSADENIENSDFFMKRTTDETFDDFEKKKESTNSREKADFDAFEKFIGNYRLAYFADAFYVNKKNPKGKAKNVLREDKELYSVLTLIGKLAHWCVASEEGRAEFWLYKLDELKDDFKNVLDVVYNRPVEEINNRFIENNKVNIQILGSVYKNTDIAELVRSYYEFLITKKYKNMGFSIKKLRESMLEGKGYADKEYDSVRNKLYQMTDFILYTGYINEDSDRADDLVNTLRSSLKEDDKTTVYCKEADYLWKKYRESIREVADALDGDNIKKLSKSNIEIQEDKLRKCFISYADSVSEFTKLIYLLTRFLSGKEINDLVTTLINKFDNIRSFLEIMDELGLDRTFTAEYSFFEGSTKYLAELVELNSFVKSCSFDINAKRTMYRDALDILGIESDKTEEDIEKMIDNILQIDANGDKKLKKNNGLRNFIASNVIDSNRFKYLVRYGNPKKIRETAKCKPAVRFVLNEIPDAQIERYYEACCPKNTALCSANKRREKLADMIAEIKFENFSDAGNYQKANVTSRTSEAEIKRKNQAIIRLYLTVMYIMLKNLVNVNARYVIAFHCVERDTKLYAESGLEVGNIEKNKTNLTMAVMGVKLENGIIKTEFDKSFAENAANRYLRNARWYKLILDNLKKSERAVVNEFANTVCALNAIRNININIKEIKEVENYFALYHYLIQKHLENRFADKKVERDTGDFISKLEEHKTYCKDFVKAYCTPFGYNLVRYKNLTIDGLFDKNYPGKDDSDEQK
- assayName: crRNA (strand 1, pre-loaded); Mg2+; 40 mM Tris-HCl pH 7.5, 150 mM NaCl, 6 mM MgCl2, 1 mM DTT, 0.1% Tween-20, 0.2 mg/ml BSA; 25 C; 10 min per concentration, then washed
- experimentalSetup: tags: His6-TwinStrep-SUMO cleaved; N-terminal SNAP kept (SNAP-Surface 488); label: 3' end held by stalled T7 RNA polymerase

[
  {
    "binder": "target 3 C6U,U7C (mixed) RNA 1: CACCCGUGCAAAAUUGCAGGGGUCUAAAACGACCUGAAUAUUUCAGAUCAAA RNA 2: GGGAAUGGAUCCACAUCUACGAAUUCGUUUUUGAUCUGAAAUAUCUAGGUCUGCAGAUCGGAAGAGCACACGU",
    "Kd / nM": 65.5
  },
  {
    "binder": "target 2 MT 5'PFS AAA 3'PFS AGG (mixed) RNA 1: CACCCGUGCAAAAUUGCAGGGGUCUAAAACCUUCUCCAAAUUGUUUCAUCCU RNA 2: GGGAAUGGAUCCACAUCUACGAAUUCAAAAGGAUGAAACAAUUUGGAGAAGAGGAGAUCGGAAGAGCACACGU",
    "Kd / nM": 4.7
  },
  {
    "binder": "target 2 MT 5'PFS UUU 3'PFS ACC (mixed) RNA 1: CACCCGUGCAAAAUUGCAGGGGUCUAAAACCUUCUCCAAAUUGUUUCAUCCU RNA 2: GGGAAUGGAUCCACAUCUACGAAUUCUUUAGGAUGAAACAAUUUGGAGAAGACCAGAUCGGAAGAGCACACGU",
    "Kd / nM": 14.1
  },
  {
    "binder": "target 1 MT 5'PFS CUU 3'PFS CUG (mixed) RNA 1: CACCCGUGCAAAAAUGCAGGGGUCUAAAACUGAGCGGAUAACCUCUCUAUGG RNA 2: GGGAAUGGAUCCACAUCUACGAAUUCCUUCCAUAGAGAGGUUAUCCGCUCACUGAGAUCGGAAGAGCACACGU",
    "Kd / nM": 41
  }
]
